Consider the following molecules; for each one, report its Percent Effect.
targetOrTestSystem: Proteasome subunit beta (Trypanosoma cruzi) (UniProt O96673)
Sequence (O96673 as listed by the source): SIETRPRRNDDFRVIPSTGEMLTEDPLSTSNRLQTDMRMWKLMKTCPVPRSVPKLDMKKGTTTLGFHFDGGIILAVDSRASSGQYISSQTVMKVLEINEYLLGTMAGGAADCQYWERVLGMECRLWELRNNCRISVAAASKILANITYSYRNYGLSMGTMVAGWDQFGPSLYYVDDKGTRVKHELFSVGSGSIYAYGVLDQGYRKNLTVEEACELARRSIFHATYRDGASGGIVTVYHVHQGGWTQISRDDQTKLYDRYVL
assayExplanation: Trypanosoma cruzi proteasome chymotrypsin-like activity (TcProtChymo) assay.
Assay type: functional
Set-up: scale not given: in the data most compounds retested in dose-response had high values
conditions: 9.37 µM
Numbers only, in %.

molecule: CCc1nccn1C1CCCN(C(=O)c2cn3c(C)cccc3n2)C1 (stereo not drawn)
unitString: %
Percent Effect: 6.04

For every listed record, write down its Percent Effect.
1. c1cnc(NCc2cncc3c2CCN(Cc2cccs2)C3)nc1
2. COc1ccc(CCC(=O)N2CCCC2Cn2cc(C)cn2)cc1F (stereo not drawn)
3. CCn1ccnc1CN1CCCC(CO)(Cc2cccc(Cl)c2)C1 (stereo not drawn)
4. CC(C)c1noc(CN(Cc2cccs2)C2CC2)n1
5. Cc1cnn(CC2CCCN2C(=O)c2cccc(CC#N)c2)c1 (stereo not drawn)
6. CCCC(=O)N1CC[C@@H]2[C@H](CC1)N(Cc1cccnc1)CCS2(=O)=O
7. COc1cc2nc(C)n(CC(=O)NCCCN(C)C)c(=O)c2cc1OC
8. Cc1nc(-c2nnc[nH]2)sc1C(=O)N(Cc1cccnc1)C1CC1

Response:
9.43
-2.67
3.18
5.16
-0.0819
6.85
17.4
7.42

* * *

targetOrTestSystem: Proteasome subunit beta (Trypanosoma cruzi)
assayExplanation: Trypanosoma cruzi proteasome chymotrypsin-like activity (TcProtChymo) assay.
Type: functional
Set-up: scale not given: in the data most compounds retested in dose-response had high values
conditions: 9.37 µM
Values of Percent Effect greater than or equal to 10% map to label 1; values below map to label 0.

Query: Could you tell me if the measured Percent Effect of Cn1nccc1C1CCN(CC(O)c2cccc(F)c2)CC1 (stereo unspecified) reaches 10% or more?
Response: label 0

Query: Could you tell me if the measured Percent Effect of `Cc1cc2cc(C(=O)N3CC[C@H](O)[C@]4(CCCO4)C3)ccc2o1` reaches 10% or more?
Response: label 0

* * *

targetOrTestSystem: Tyrosyl-tRNA synthetase, putative (Trypanosoma cruzi (strain CL Brener)) (UniProt Q4DSP6)
Sequence (whole entry): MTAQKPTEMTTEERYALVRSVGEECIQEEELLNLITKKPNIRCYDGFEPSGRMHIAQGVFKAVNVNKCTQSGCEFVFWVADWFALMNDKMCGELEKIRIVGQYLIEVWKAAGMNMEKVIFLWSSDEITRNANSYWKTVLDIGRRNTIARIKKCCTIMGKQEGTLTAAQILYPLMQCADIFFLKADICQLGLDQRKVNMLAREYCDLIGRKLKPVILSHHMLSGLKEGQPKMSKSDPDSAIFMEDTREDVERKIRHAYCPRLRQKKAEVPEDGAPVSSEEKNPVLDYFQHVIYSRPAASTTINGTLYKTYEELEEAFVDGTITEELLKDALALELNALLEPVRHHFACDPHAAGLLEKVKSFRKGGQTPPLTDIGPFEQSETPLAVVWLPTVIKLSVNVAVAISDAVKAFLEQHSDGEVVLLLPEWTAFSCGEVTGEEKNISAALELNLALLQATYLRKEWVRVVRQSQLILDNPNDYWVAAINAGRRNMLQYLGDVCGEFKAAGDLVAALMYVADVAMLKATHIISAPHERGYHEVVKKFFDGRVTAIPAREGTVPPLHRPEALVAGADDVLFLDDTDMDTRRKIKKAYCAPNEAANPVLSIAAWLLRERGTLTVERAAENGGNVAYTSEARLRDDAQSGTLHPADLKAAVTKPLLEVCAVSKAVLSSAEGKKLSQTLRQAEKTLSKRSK
assayExplanation: Trypanosoma cruzi tyrosyl tRNA synthetase (TcYRS) _High Tyrosine SOP
Type: functional
Design: scale not given: in the data most compounds retested in dose-response had high values
conditions: 30 µM
measuredParameter: Percent Effect (%)
Give bare numbers, in %.

Worked examples follow.
compound: Cc1nc(C)n(CC2CCCN(CCOc3cccc(C#N)c3)C2)n1 (stereo unspecified)
Percent Effect, %: 0.493

compound: CCNc1cc2c(nn1)CCN(C(=O)c1ccc(CNC(C)=O)o1)C2
Percent Effect, %: 3.68

compound: CCn1ccnc1CN1CCCN(C(=O)c2cccc(C#N)c2)CC1
Percent Effect, %: 1.44

compound: COCCN1CCc2cc(C(=O)N(C)C)c(NCC3CC3)nc2CC1
Percent Effect, %: 2.15

compound: N#Cc1ccc(S(=O)(=O)NC(=O)C2CC2)c(C(F)(F)F)c1
Percent Effect, %: 6.4

Proceeding to the next compound to report its Percent Effect.
Query: Report Percent Effect for CCC(NC(=O)CC(F)(F)F)c1ccccc1OCC(=O)N1CCCC1 (stereo unspecified) please.
Response: 7.18
